Hi there, I'd appreciate the recorded Vmax · 10^8 for every entry that follows.
biological target: factor Xa (Bos taurus, UniProt P00743); construct: purchased Diagnostic Reagents (product 'Diagen', 6.4 Denson U); assay: Determination of Km and Vmax (Lineweaver-Burk, hydrolysis of chromogenic substrate read at 405 nm); type: biochemical; details: value is Vmax multiplied by 10^8; Tris buffer pH 8.3, I 0.25, 37° C., enzyme Diagen
Sequence (P00743 234-492 limits assumed): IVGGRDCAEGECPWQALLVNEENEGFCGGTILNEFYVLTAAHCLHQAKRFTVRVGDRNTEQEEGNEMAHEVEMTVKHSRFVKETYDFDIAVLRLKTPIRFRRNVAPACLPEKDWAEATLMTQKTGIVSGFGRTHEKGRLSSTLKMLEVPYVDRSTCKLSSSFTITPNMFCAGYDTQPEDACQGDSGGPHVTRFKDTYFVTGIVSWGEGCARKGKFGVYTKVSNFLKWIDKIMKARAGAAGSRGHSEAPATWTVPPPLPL
Sequence (P00743 41-180 limits assumed): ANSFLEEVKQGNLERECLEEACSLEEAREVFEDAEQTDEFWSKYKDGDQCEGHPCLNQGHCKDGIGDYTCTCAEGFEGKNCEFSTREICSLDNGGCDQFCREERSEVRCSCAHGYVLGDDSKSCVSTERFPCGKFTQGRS
Structures can show the parent of a compound that is named as a salt. Residues, ends and D or L forms follow the SMILES beside them. *: point of attachment. pNA = O=[N+]([O-])c1ccc(N*)cc1; Piperidide = C1CCN(*)CC1; Bz = O=C(c1ccccc1)*; NHiPr = CC(C)N*; OiPr = CC(C)O*
Answers are plain numbers, in mol/min · U.

Need Vmax · 10^8 for each of these compounds.
1. CC[C@H](C)[C@H](NC(=O)c1ccccc1)C(=O)N[C@@H](CCC(=O)NC(C)C)C(=O)NCC(=O)N[C@@H](CCCNC(=N)N)C(=O)Nc1ccc([N+](=O)[O-])cc1 [Ex. 6] (Bz-IE(NHiPr)GR-pNA)
2. CC[C@H](C)[C@H](NC(=O)c1ccccc1)C(=O)N[C@@H](CCC(=O)O)C(=O)NCC(=O)N[C@@H](CCCNC(=N)N)C(=O)Nc1ccc([N+](=O)[O-])cc1 [Example S-2222, Benzoyl-Ile-Glu-Gly-Arg-p-nitroanilide, reference compound] (Bz-IEGR-pNA)

[20.0, 8.6]

Need Vmax · 10^8 for each of these compounds.
1. CC[C@H](C)[C@H](NC(=O)c1ccccc1)C(=O)N[C@@H](CCC(=O)OC(C)C)C(=O)NCC(=O)N[C@@H](CCCNC(=N)N)C(=O)Nc1ccc([N+](=O)[O-])cc1 [Ex. 3, Bz-Ile-Glu(OisoPr)-Gly-Arg-pNA.HCl] (Bz-IE(OiPr)GR-pNA)
2. CC[C@H](C)[C@H](NC(=O)c1ccccc1)C(=O)N[C@@H](CCC(=O)OC)C(=O)NCC(=O)N[C@@H](CCCNC(=N)N)C(=O)Nc1ccc([N+](=O)[O-])cc1 [Ex. 1, Bz-Ile-Glu(OMe)-Gly-Arg-pNA.HCl] (Bz-IE(OMe)GR-pNA)
3. CCOC(=O)CC[C@H](NC(=O)[C@@H](NC(=O)c1ccccc1)[C@@H](C)CC)C(=O)NCC(=O)N[C@@H](CCCNC(=N)N)C(=O)Nc1ccc([N+](=O)[O-])cc1 [Ex. 2, Bz-Ile-Glu(OEt)-Gly-Arg-pNA.HCl] (Bz-IE(OEt)GR-pNA)
4. CC[C@H](C)[C@H](NC(=O)c1ccccc1)C(=O)N[C@@H](CCC(=O)N1CCCCC1)C(=O)NCC(=O)N[C@@H](CCCNC(=N)N)C(=O)Nc1ccc([N+](=O)[O-])cc1 [Ex. 7] (Bz-IE(Piperidide)GR-pNA)

1: 7.1; 2: 8.1; 3: 7.5; 4: 8.6

* * *

molecular target: factor Xa (Bos taurus); construct: purchased Diagnostic Reagents (product 'Diagen', 6.4 Denson U); experiment: Relative activity (rate of substrate hydrolysis, Δ OD/min at 405 nm); format: biochemical; conditions: S-2222 = 100, 250 μl of 2 mmole/l substrate in 2500 μl, Tris buffer pH 8.3, 37° C.
Counter-ions that a name gives are not always drawn. Residues, ends and D or L forms follow the SMILES beside them. *: point of attachment. pNA = O=[N+]([O-])c1ccc(N*)cc1; Piperidide = C1CCN(*)CC1; Bz = O=C(c1ccccc1)*; NHiPr = CC(C)N*; OiPr = CC(C)O*
Classification field: enter Met for Relative activity values not below 200, Not met for values below it.

# COMPOUND, ASSAY_TARGET, LABEL
rows = [
    ("CC[C@H](C)[C@H](NC(=O)c1ccccc1)C(=O)N[C@@H](CCC(=O)NC(C)C)C(=O)NCC(=O)N[C@@H](CCCNC(=N)N)C(=O)Nc1ccc([N+](=O)[O-])cc1 [Ex. 6] (Bz-IE(NHiPr)GR-pNA)", "factor Xa (Bos taurus)", "Met"),
]

Is Relative activity for CC[C@H](C)[C@H](NC(=O)c1ccccc1)C(=O)N[C@@H](CCC(=O)O)C(=O)NCC(=O)N[C@@H](CCCNC(=N)N)C(=O)Nc1ccc([N+](=O)[O-])cc1 [Example S-2222, Benzoyl-Ile-Glu-Gly-Arg-p-nitroanilide, reference compound] (Bz-IEGR-pNA) at or above 200?
Not met

Is Relative activity for CC[C@H](C)[C@H](NC(=O)c1ccccc1)C(=O)N[C@@H](CCC(=O)N1CCCCC1)C(=O)NCC(=O)N[C@@H](CCCNC(=N)N)C(=O)Nc1ccc([N+](=O)[O-])cc1 [Ex. 7] (Bz-IE(Piperidide)GR-pNA) at or above 200?
Met

Is Relative activity for CC[C@H](C)[C@H](NC(=O)c1ccccc1)C(=O)N[C@@H](CCC(=O)OC(C)C)C(=O)NCC(=O)N[C@@H](CCCNC(=N)N)C(=O)Nc1ccc([N+](=O)[O-])cc1 [Ex. 3, Bz-Ile-Glu(OisoPr)-Gly-Arg-pNA.HCl] (Bz-IE(OiPr)GR-pNA) at or above 200?
Met

Is Relative activity for CC[C@H](C)[C@H](NC(=O)c1ccccc1)C(=O)N[C@@H](CCC(=O)OC)C(=O)NCC(=O)N[C@@H](CCCNC(=N)N)C(=O)Nc1ccc([N+](=O)[O-])cc1 [Ex. 1, Bz-Ile-Glu(OMe)-Gly-Arg-pNA.HCl] (Bz-IE(OMe)GR-pNA) at or above 200?
Met

Where do these numbers come from? They come from patent US4276375A.
